The reported measurements were obtained from patent US20190231771A1.

- experimentalDetails: Comparative bioavailability: single oral 150, 300, 450 mg MNTX tablets vs 12 mg SC injection, crossover
- Format: in vivo, human
- conditionParameters: human, plasma, oral, 450 mg, MNTX 450 mg Tablet; read-out: AUC0-∞, Geometric LSM
valueKind: AUC(0-inf) (ng·h/mL)
Numeric only. Scale: ng·h/mL

input: Quick check: AUC(0-inf) of C[N@+]1(CC2CC2)CC[C@]23c4c5ccc(O)c4O[C@H]2C(=O)CC[C@@]3(O)[C@H]1C5.[Br-] [MNTX] ?
output: 327

* * *

- experimentalDetails: Study C: single and multiple dose pharmacokinetics of MNTX and metabolites, MNTX 450 mg PO x 7 days
- Format: in vivo, human
- conditionParameters: human, plasma, po, 450 mg, 450 mg Tablets oral, Day 7, mean; read-out: AUC0-24
valueKind: AUC(0-t) (ng·h/mL)
Numeric only. Scale: ng·h/mL

input: Quick check: AUC(0-t) of `C[N@+]1(CC2CC2)CC[C@]23c4c5ccc(O)c4O[C@H]2C(=O)CC[C@@]3(O)[C@H]1C5.[Br-]` ?
output: 309

* * *

- experimentalDetails: Comparative bioavailability: single oral 150, 300, 450 mg MNTX tablets vs 12 mg SC injection, crossover
- Type: in vivo, human
- conditionParameters: human, plasma, oral, 450 mg, MNTX 450 mg Tablet; read-out: Cmax, Geometric LSM
valueKind: Cmax (ng/mL)
Numeric only. Scale: ng/mL

input: Quick check: Cmax of `C[N@+]1(CC2CC2)CC[C@]23c4c5ccc(O)c4O[C@H]2C(=O)CC[C@@]3(O)[C@H]1C5.[Br-]` ?
output: 32.7

* * *

- experimentalDetails: Study C: single and multiple dose pharmacokinetics of MNTX and metabolites, MNTX 450 mg PO x 7 days
- Format: in vivo, human
- conditionParameters: human, plasma, oral, 450 mg, MNTX tablets 450 mg, single dose, cross-study AUCinf comparison; read-out: absolute bioavailability (relative to IV infusion)
valueKind: bioavailability (%)
Numeric only. Scale: %

input: Quick check: bioavailability of `C[N@+]1(CC2CC2)CC[C@]23c4c5ccc(O)c4O[C@H]2C(=O)CC[C@@]3(O)[C@H]1C5.[Br-]` ?
output: 4.24

* * *

- experimentalDetails: Food effect study: single oral 450 mg MNTX fasted vs high-fat breakfast, 2-period crossover
- Type: in vivo, human
- conditionParameters: both sexes, human, plasma, oral, 450 mg, 450 mg Single-Dose Fed, mean; read-out: AUC0-∞
valueKind: AUC(0-inf) (ng·h/mL)
Numeric only. Scale: ng·h/mL

input: Quick check: AUC(0-inf) of C[N@+]1(CC2CC2)CC[C@]23c4c5ccc(O)c4O[C@H]2C(=O)CC[C@@]3(O)[C@H]1C5.[Br-] [MNTX] ?
output: 169

* * *

- experimentalDetails: Study A: single and multiple dose pharmacokinetics after subcutaneous 12 mg methylnaltrexone
- Type: in vivo, human
- conditionParameters: human, plasma, sc, 12 mg, 12 mg SC Injection, Day 1, mean; read-out: Cmax
- Method: Presented herein is a clinical pharmacokinetics study, Study C, as well as Studies A and B. Study A investigated the single and multiple dose pharmacokinetics of methylnaltrexone (MNTX) and its metabolites (M2: methylnaltrexone sulfate; M4: 6α-methylnaltrexol; and M5: 6β-methylnaltrexol) following the subcutaneous administration of 12 mg methylnaltrexone. […]
valueKind: Cmax

input: Quick check: Cmax of `C[N@+]1(CC2CC2)CC[C@]23c4c5ccc(O)c4O[C@H]2C(=O)CC[C@@]3(O)[C@H]1C5.[Br-]` ?
output: 140 ng/mL
